assay-info: Decomposition of pseudomonic acid during the process of preparing the calcium salt
Type: physicochemical
assay-context: before / after preparation of the calcium salt; unit assumed
observed-property: Related Substances (from process) P.A. C (%)
Please state the figure in %; there is no need to write the unit.

C/C(=C\C(=O)OCCCCCCCCC(=O)[O-])C[C@@H]1OC[C@H](C[C@@H]2O[C@H]2[C@@H](C)[C@H](C)O)[C@@H](O)[C@H]1O.C/C(=C\C(=O)OCCCCCCCCC(=O)[O-])C[C@@H]1OC[C@H](C[C@@H]2O[C@H]2[C@@H](C)[C@H](C)O)[C@@H](O)[C@H]1O.[Ca+2] [amorphous calcium pseudomonate, calcium pseudomonate] :: 0.1

Please turn your attention to the following entry.
Reported Related Substances (from process) P.A. C, compound C/C(=C\C(=O)OCCCCCCCCC(=O)O)C[C@@H]1OC[C@H](C[C@@H]2O[C@H]2[C@@H](C)[C@H](C)O)[C@@H](O)[C@H]1O : ____
0.16

Source of measurements: patent US20040039049A1
